Where do these numbers come from? They come from patent US20240150360A1.

- TGT: CBP (Homo sapiens)
- Construct: endogenous in cells; host or cells: 22Rv1 (ATCC CRL-2505) human prostate cancer cells
- PROTOCOL DESCRIPTION: CBP degradation in 22Rv1 cells (5 h)
- Format: cell-based
- CONDITIONS USED: 22Rv1 cells, 5 h
# maps each entry to its DC50

Examples from the recorded data:
CC(=O)N1CCc2c(c(N3CCCc4cc(-c5cnn(C)c5)c(C(F)F)cc43)nn2C2CCC(C(=O)N3Cc4cc5c(cc4C3)C(=O)N(C3CCC(=O)NC3=O)C5=O)CC2)C1 (centres unmarked) [CP-034]	< 0.01 µM
CC(=O)N1CCc2c(c(N3CCCc4cc(-c5cnn(C)c5)c(C(F)F)cc43)nn2C2CCC(CC(=O)N3CCc4cc5c(cc4C3)C(=O)N(C3CCC(=O)NC3=O)C5=O)CC2)C1 (centres unmarked) [CP-028]	< 0.01 µM
CC(=O)N1CCc2c(c(N3CCCc4cc(-c5cnn(CCCN6CCc7cc8c(cc7C6)C(=O)N(C6CCC(=O)NC6=O)C8=O)c5)c(C(F)F)cc43)nn2C2CCOCC2)C1 (centres unmarked) [CP-074]	> 1 µM
CC(=O)N1CCc2c(c(N3CCCc4cc(-c5cnn(C)c5)c(C(F)F)cc43)nn2C2CCC(C(=O)N3CCc4cc5c(cc4C3)C(=O)N(C3CCC(=O)NC3=O)C5=O)CC2)C1 (centres unmarked) [CP-035]	< 0.1 µM
CC(=O)N1CCc2c(c(N3CCCc4cc(-c5cnn(C)c5)c(C(F)F)cc43)nn2C2CCN(C(=O)CCN3Cc4cc5c(cc4C3)C(=O)N(C3CCC(=O)NC3=O)C5=O)CC2)C1 (centres unmarked) [CP-007]	< 0.1 µM

Suppose we examine the molecule CC(=O)N1CCc2c(c(N3CCCc4cc(CCC(C)C)c(C(F)F)cc43)nn2C2CCN(C(=O)CN3Cc4cc5c(cc4C3)C(=O)N(C3CCC(=O)NC3=O)C5=O)CC2)C1 (centres unmarked) [CP-026] ; what DC50 value has been reported?
< 0.01 µM

* * *

- TGT: CBP (Homo sapiens, UniProt Q92793)
- Construct: endogenous in cells; host or cells: 22Rv1 (ATCC CRL-2505) human prostate cancer cells
- Sequence (Q92793 whole entry): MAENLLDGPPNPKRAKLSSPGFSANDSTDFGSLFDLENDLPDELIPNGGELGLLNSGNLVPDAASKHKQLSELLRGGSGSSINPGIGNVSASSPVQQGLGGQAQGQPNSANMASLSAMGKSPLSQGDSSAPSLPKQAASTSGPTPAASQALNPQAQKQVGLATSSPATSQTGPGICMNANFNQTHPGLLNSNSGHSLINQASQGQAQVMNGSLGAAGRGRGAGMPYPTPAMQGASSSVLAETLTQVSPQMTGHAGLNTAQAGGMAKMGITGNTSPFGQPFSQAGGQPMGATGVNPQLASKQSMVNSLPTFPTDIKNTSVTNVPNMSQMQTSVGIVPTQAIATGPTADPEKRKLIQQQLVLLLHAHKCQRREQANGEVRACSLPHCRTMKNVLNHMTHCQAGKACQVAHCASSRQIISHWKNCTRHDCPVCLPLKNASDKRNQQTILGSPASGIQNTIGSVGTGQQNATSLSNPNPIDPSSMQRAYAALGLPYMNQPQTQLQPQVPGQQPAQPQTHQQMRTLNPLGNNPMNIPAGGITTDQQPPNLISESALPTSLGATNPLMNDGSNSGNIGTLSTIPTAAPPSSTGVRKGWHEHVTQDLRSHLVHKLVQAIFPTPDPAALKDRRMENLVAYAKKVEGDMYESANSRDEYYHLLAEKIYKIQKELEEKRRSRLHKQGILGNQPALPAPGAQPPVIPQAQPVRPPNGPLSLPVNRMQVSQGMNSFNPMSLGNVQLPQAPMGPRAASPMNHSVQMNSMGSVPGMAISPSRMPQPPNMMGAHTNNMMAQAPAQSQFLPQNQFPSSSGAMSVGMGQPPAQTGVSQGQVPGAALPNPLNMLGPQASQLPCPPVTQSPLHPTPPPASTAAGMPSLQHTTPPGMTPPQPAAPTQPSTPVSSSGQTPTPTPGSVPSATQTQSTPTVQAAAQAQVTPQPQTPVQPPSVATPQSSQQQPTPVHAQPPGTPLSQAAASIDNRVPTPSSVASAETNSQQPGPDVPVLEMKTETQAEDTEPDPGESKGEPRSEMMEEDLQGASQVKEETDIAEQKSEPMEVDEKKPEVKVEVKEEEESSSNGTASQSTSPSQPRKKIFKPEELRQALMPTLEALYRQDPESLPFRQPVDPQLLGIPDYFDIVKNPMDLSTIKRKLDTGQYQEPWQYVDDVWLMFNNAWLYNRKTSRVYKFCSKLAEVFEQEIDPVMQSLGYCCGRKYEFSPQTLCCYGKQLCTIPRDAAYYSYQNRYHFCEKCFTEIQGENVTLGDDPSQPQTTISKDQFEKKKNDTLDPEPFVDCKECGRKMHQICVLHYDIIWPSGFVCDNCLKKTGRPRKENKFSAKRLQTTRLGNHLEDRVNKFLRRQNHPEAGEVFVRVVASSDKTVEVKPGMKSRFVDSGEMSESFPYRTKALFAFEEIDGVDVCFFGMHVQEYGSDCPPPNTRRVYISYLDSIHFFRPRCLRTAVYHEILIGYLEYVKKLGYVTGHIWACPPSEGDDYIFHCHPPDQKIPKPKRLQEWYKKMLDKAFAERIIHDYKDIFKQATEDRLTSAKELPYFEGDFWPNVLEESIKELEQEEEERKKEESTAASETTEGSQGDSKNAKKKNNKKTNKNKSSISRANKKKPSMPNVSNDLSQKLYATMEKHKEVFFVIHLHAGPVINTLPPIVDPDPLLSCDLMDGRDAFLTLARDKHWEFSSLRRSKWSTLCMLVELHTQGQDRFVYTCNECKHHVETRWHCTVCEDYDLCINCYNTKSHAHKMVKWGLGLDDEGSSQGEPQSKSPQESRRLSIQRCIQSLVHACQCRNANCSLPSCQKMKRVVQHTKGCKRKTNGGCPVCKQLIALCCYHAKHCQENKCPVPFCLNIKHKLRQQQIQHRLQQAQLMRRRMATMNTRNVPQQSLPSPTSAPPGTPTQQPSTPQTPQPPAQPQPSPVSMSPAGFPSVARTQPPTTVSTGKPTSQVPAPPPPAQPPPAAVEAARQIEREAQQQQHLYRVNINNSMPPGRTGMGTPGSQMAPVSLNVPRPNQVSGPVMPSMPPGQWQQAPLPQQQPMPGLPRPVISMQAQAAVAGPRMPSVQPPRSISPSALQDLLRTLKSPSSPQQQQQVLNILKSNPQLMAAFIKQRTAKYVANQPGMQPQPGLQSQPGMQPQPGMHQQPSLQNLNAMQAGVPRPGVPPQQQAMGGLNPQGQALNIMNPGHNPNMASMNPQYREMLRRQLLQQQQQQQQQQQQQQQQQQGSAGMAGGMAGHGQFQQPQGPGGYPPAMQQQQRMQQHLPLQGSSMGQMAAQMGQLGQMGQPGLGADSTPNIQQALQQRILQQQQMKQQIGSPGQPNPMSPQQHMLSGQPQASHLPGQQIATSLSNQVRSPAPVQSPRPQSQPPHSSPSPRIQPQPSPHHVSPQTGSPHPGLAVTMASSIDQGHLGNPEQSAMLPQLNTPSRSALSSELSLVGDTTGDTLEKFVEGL
- PROTOCOL DESCRIPTION: CBP degradation in 22Rv1 cells (5 h)
- Assay type: cell-based
- CONDITIONS USED: 22Rv1, 5 h, 22Rv1 cells, 5 h; read-out: CBP Degradation (22Rv1, 5 h) DCmax
OBSERVATION TYPE: Dmax

Examples from the recorded data:
Cc1noc(C)c1-c1ccc2c(c1)nc([C@@H]1CCCC(=O)N1c1ccc(F)c(F)c1)n2C1CCN(C(=O)CCCN2Cc3cc4c(cc3C2)C(=O)N(C2CCC(=O)NC2=O)C4=O)CC1 (some centres unmarked) [CP-066]	< 50%
CC(=O)N1CCc2c(c(N3CCCc4cc(-c5cnn(CCCN6Cc7cc8c(cc7C6)C(=O)N(C6CCC(=O)NC6=O)C8=O)c5)c(C(F)F)cc43)nn2C2CCOCC2)C1 (centres unmarked) [CP-073]	> 70%
CC(=O)N1CCc2c(c(N3CCCc4cc5c(cc43)CCCC5)nn2C2CCN(C(=O)CN3Cc4cc5c(cc4C3)C(=O)N(C3CCC(=O)NC3=O)C5=O)CC2)C1 (centres unmarked) [CP-077]	> 90%
Cc1noc(C)c1-c1ccc2c(c1)nc([C@@H]1CCCC(=O)N1c1ccc(F)c(F)c1)n2C1CCN(C(=O)CN2CCc3cc4c(cc3CC2)C(=O)N(C2CCC(=O)NC2=O)C4=O)CC1 (some centres unmarked) [CP-064]	< 50%
CC(=O)N1CCc2c(c(N3CCCc4cc(-c5cnn(C)c5)c(C(F)F)cc43)nn2C2CCN(CC(=O)N3CCc4cc5c(cc4C3)C(=O)N(C3CCC(=O)NC3=O)C5=O)CC2)C1 (centres unmarked) [CP-002]	> 90%
CC(=O)N1CCc2c(c(N3CCCc4cc(-c5cnn(C)c5)c(C(F)F)cc43)nn2[C@H]2CC[C@H](CN3CC4(Cc5cc6c(cc5C4)C(=O)N(C4CCC(=O)NC4=O)C6=O)C3)CC2)C1 (some centres unmarked) [CP-088]	> 70%

Suppose we examine the molecule CC(=O)N1CCc2c(c(N3CCCc4cc(C5CC5)c(C(F)F)cc43)nn2C2CCN(C(=O)CN3CCc4cc5c(cc4C3)C(=O)N(C3CCC(=O)NC3=O)C5=O)CC2)C1 (centres unmarked) [CP-014] ; what Dmax value has been reported?
> 90%

Suppose we examine the molecule CC(=O)N1CCc2c(c(N3CCCc4cc(-c5cnn(C)c5)c(C(F)F)cc43)nn2C2CCC(CC(=O)N3CCc4cc5c(cc4C3)C(=O)N(C3CCC(=O)NC3=O)C5=O)CC2)C1 (centres unmarked) [CP-028] ; what Dmax value has been reported?
> 50%

Suppose we examine the molecule CC(=O)N1CCc2c(c(N3CCCc4cc(-c5cnn(C)c5)c(C(F)F)cc43)nn2C2CCC(CCN3CCc4cc5c(cc4C3)C(=O)N(C3CCC(=O)NC3=O)C5=O)CC2)C1 (centres unmarked) [CP-045] ; what Dmax value has been reported?
> 90%

Suppose we examine the molecule CC(=O)N1CCc2c(c(N3CCCc4cc5c(cc43)CCCC5)nn2C2CCN(C(=O)CN3CCc4cc5c(cc4C3)C(=O)N(C3CCC(=O)NC3=O)C5=O)CC2)C1 (centres unmarked) [CP-078] ; what Dmax value has been reported?
> 90%

Suppose we examine the molecule CC(=O)N1CCc2c(c(N3CCCc4cc(CCC(C)C)c(C(F)F)cc43)nn2C2CCN(C(=O)CN3Cc4cc5c(cc4C3)C(=O)N(C3CCC(=O)NC3=O)C5=O)CC2)C1 (centres unmarked) [CP-026] ; what Dmax value has been reported?
> 90%
